- Test system: SK-OV-3
- method-notes: 39-cancer cell panel assay: SK-OV-3
- Type: cell-based
- run-conditions: Homo sapiens
measured-quantity: GI50 (µM)
The reply should contain only the number, in µM.

Please review the following examples before continuing.
compound	target-entity	GI50 [µM]
CC(=O)OC(C)/C(C)=C/CC/C(C)=C/Cc1c(O)c(Cl)c(C)c(C=O)c1O (stereo not drawn)	SK-OV-3	12
C/C(=C\Cc1c(O)c(Cl)c(C)c(C=O)c1O)CC/C=C(\C)C(C)O (stereo not drawn)	SK-OV-3	27
COC(=O)/C(C)=C/CC/C(C)=C/Cc1c(O)c(Cl)c(C)c(C=O)c1O	SK-OV-3	11

Input: Which GI50 is reported for this compound? CC(C)=CCC/C(C)=C/CC/C(C)=C/Cc1c(O)c(Cl)c(C)c(C=O)c1O
Output: 37

Input: Which GI50 is reported for this compound? C/C(=C\COC(=O)C(C)C)CC/C(C)=C/Cc1c(O)c(Cl)c(C)c(C=O)c1O
Output: 49

Input: Which GI50 is reported for this compound? C/C(=C\Cc1c(O)c(Cl)c(C)c(C=O)c1O)CC/C=C(\C)[C@@H]1CC(=O)C(C)(C)O1
Output: 13

====

- target-entity: Complexes I–III
- method-notes: NADH-cytochrome c reductase (complexes I–III) activity, bovine mitochondria
- Assay type: biochemical
Overview of reported IC50 across a group of molecules:
The reply should contain only the number, in µM.

Please review the following examples before continuing.
molecule	target-entity	readout-number
C=C(C)[C@H]1Cc2c(ccc3c2O[C@@H]2COc4cc(OC)c(OC)cc4[C@@H]2C3=O)O1 [Rotenone, reference compound]	Complexes I–III	0.0063
CC(C)=CCC/C(C)=C/CC/C(C)=C/Cc1c(O)c(Cl)c(C)c(C=O)c1O	Complexes I–III	0.048
COc1[nH]c(=O)c(C(=O)[C@@H](C)C[C@H](C)[C@@H](Cl)CCl)c(O)c1OC [Atpenin A5, reference compound]	Complexes I–III	2.8

Input: Which IC50 is reported for this molecule? COC(=O)/C(C)=C/CC/C(C)=C/Cc1c(O)c(Cl)c(C)c(C=O)c1O
Output: 1

====

- Tested on: HCT-116
- method-notes: 39-cancer cell panel assay: HCT-116
- Type: cell-based
- run-conditions: Homo sapiens, Co
measured-quantity: log10 GI50 (log10 of the value in µM)
Short version: log10 scale, GI50, µM.

compound	measured-quantity	readout-number
C/C(=C\Cc1c(O)c(Cl)c(C)c(C=O)c1O)CC/C=C(\C)C(C)O (stereo not drawn) [Compound 6]	log10 GI50	1.15

Input: Query the reported log10 GI50 for HCT-116; item: C/C(=C\COC(=O)C(C)C)CC/C(C)=C/Cc1c(O)c(Cl)c(C)c(C=O)c1O [Compound 12]
Output: 0.66

Input: Query the reported log10 GI50 for HCT-116; item: CC(=O)OC(C)/C(C)=C/CC/C(C)=C/Cc1c(O)c(Cl)c(C)c(C=O)c1O (stereo not drawn) [Compound 7]
Output: 0.18

Input: Query the reported log10 GI50 for HCT-116; item: COC(=O)/C(C)=C/CC/C(C)=C/Cc1c(O)c(Cl)c(C)c(C=O)c1O [Compound 9]
Output: 0.40

Input: Query the reported log10 GI50 for HCT-116; item: C/C(=C\Cc1c(O)c(Cl)c(C)c(C=O)c1O)CC/C=C(\C)[C@@H]1CC(=O)C(C)(C)O1 [Compound 1, ascofuranone]
Output: 0.71

Input: Query the reported log10 GI50 for HCT-116; item: CC(C)=CCC/C(C)=C/CC/C(C)=C/Cc1c(O)c(Cl)c(C)c(C=O)c1O [Compound 8]
Output: -0.34

====

- Test system: SNB-75
- method-notes: 39-cancer cell panel assay: SNB-75
- Format: cell-based
- run-conditions: Homo sapiens, CNS
Overview of reported log10 of GI50 across a group of compounds:
Short version: log10 scale, GI50, µM.

Input: Query the reported log10 of GI50 for SNB-75; item: CC(=O)OC(C)/C(C)=C/CC/C(C)=C/Cc1c(O)c(Cl)c(C)c(C=O)c1O (stereo not drawn)
Output: 1.34

====

- target-entity: human dihydroorotate dehydrogenase (HsDHODH) (Homo sapiens, UniProt Q02127)
- Construct: made in house
- Sequence (Q02127 whole entry): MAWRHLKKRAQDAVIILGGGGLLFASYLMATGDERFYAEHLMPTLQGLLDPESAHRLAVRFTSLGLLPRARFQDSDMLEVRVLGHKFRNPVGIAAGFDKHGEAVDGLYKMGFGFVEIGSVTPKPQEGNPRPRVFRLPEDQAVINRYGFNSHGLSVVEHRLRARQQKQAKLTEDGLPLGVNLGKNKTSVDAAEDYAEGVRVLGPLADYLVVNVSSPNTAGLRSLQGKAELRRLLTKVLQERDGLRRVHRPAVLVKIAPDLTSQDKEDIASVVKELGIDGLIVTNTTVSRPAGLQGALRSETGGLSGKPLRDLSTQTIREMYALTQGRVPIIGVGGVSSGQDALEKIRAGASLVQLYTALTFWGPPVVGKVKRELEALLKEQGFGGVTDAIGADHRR
- method-notes: Inhibition of recombinant human DHODH enzyme activity
- Type: biochemical
- run-conditions: recombinant human DHODH; purified enzyme fixed at 10 nM; read-out: IC50 (nM), inhibition of human DHODH
measured-quantity: IC50

molecule	IC50
CC(/C=C/[C@@]1(C)[C@H](C)CCC(=O)[C@@H]1C)=C\Cc1c(O)c(Cl)c(C)c(C=O)c1O	> 1000 nM

Input: Which IC50 is reported for this molecule? CC(=O)OC(C)/C(C)=C/CC/C(C)=C/Cc1c(O)c(Cl)c(C)c(C=O)c1O (stereo not shown)
Output: 6.4 nM

Input: Which IC50 is reported for this molecule? Cc1c(Cl)c(O)c(CCC(C)CCCC(C)COC(=O)C(C)(C)C)c(O)c1C=O (stereo not shown)
Output: > 1000 nM

Input: Which IC50 is reported for this molecule? C/C(=C\Cc1c(O)c(Cl)c(C)c(C=O)c1O)CC/C=C(\C)[C@@H]1CC(=O)C(C)(C)O1
Output: 37.5 nM

Input: Which IC50 is reported for this molecule? C/C(=C\Cc1c(O)c(Cl)c(C)c(CO)c1O)CC/C=C(\C)COC(=O)C(C)(C)C
Output: 3530 nM

Input: Which IC50 is reported for this molecule? C/C(=C\COC(=O)C(C)(C)C)CC/C(C)=C/Cc1c(O)c(Cl)c(C)c(C=O)c1O
Output: 67.2 nM

Input: Which IC50 is reported for this molecule? COC(=O)/C(C)=C/CC/C(C)=C/Cc1c(O)c(Cl)c(C)c(C=O)c1O
Output: ~5 nM

====

- System: MDA-MB-231
- method-notes: 39-cancer cell panel assay: MDA-MB-231
- Format: cell-based
- run-conditions: Homo sapiens, Br
Binary label based on GI50 with cut-off 10 µM: below gives t, not below gives f.

Input: is_below(GI50, 10 µM) for C/C(=C\Cc1c(O)c(Cl)c(C)c(C=O)c1O)CC/C=C(\C)[C@@H]1CC(=O)C(C)(C)O1 [Compound 1, ascofuranone] ?
Output: t

Input: is_below(GI50, 10 µM) for COC(=O)/C(C)=C/CC/C(C)=C/Cc1c(O)c(Cl)c(C)c(C=O)c1O [Compound 9] ?
Output: f

====

- System: Complex I
- method-notes: NADH dehydrogenase (complex I) activity, bovine mitochondria
- Assay type: biochemical
- run-conditions: at 5 μM
Overview of reported Inhibition (%) Complex I across a group of molecules:
The reply should contain only the number, in %.

Please review the following examples before continuing.
molecule	target-entity	Inhibition (%) Complex I
C/C(=C\Cc1c(O)c(Cl)c(C)c(C=O)c1O)CC/C=C(\C)[C@@H]1CC(=O)C(C)(C)O1	Complex I	11
CC(/C=C/[C@@]1(C)[C@H](C)CCC(=O)[C@@H]1C)=C\Cc1c(O)c(Cl)c(C)c(C=O)c1O	Complex I	6.8
COc1[nH]c(=O)c(C(=O)[C@@H](C)C[C@H](C)[C@@H](Cl)CCl)c(O)c1OC [Atpenin A5, reference compound]	Complex I	10
C=C(C)[C@H]1Cc2c(ccc3c2O[C@@H]2COc4cc(OC)c(OC)cc4[C@@H]2C3=O)O1 [Rotenone, reference compound]	Complex I	94
CC(=O)OC(C)/C(C)=C/CC/C(C)=C/Cc1c(O)c(Cl)c(C)c(C=O)c1O (stereo not shown)	Complex I	15

Input: Which Inhibition (%) Complex I is reported for this molecule? COC(=O)/C(C)=C/CC/C(C)=C/Cc1c(O)c(Cl)c(C)c(C=O)c1O
Output: 7.6

Input: Which Inhibition (%) Complex I is reported for this molecule? CC(C)=CCC/C(C)=C/CC/C(C)=C/Cc1c(O)c(Cl)c(C)c(C=O)c1O
Output: 43

====

- target-entity: human dihydroorotate dehydrogenase (HsDHODH) (Homo sapiens)
- Construct: made in house
- method-notes: Inhibition of recombinant human DHODH enzyme activity
- Type: biochemical
- run-conditions: at 1,000 nM; read-out: Inhibition of HsDHODH activity (value in parentheses)
Overview of reported inhibition at 1 µM across a group of compounds:
The reply should contain only the number, in %.

Please review the following examples before continuing.
compound	target-entity	inhibition at 1 µM [%]
Cc1c(Cl)c(O)c(CCC(C)CCCCOC(=O)C(C)(C)C)c(O)c1C=O (centres unmarked)	human dihydroorotate dehydrogenase (HsDHODH) (Homo sapiens)	21
CC(C)=CCC/C(C)=C/Cc1c(O)c(Cl)cc(C=O)c1O	human dihydroorotate dehydrogenase (HsDHODH) (Homo sapiens)	36

Input: Which inhibition at 1 µM is reported for this compound? COc1c(Cl)c(C)c(C=O)c(O)c1C/C=C(\C)CC/C=C(\C)[C@@H]1CC(=O)C(C)(C)O1
Output: 3

Input: Which inhibition at 1 µM is reported for this compound? CC(C)=CCC/C(C)=C/Cc1c(O)cc(C)c(C=O)c1O
Output: 20

Input: Which inhibition at 1 µM is reported for this compound? Cc1c(Cl)c(O)c(CCC(C)CCCC(C)COC(=O)C(C)(C)C)c(O)c1C=O (centres unmarked)
Output: 35

Input: Which inhibition at 1 µM is reported for this compound? CCCCCC(C)CCc1c(O)c(Cl)c(C)c(C=O)c1O (centres unmarked)
Output: 37

Input: Which inhibition at 1 µM is reported for this compound? CC(=O)c1c(C)c(Cl)c(O)c(C/C=C(\C)CC/C=C(\C)C2CC(=O)C(C)(C)O2)c1O (centres unmarked)
Output: 3

Input: Which inhibition at 1 µM is reported for this compound? CC(/C=C/[C@@]1(C)[C@H](C)CCC(=O)[C@@H]1C)=C\Cc1c(O)c(Cl)c(C)c(C=O)c1O
Output: 33
